Tested on: high cholesterol diet-treated rat
TEST DETAILS: Influence on serum lipid of high cholesterol diet-treated rat
Assay type: in vivo, male SD rats
CONDITION DETAILS: Rattus norvegicus, po, 120 h; 0.3 mg/kg p.o. once a day for 5 days, high cholesterol diet rats, non-fasting, blood total cholesterol vs vehicle group; read-out: lowering rate (%, 0.3 mg/kg, p.o.) TC
OBSERVABLE: inhibition in vivo at 0.3 mg/kg
Please make sure the unit comes right after the number.

Please review the entries below; each comes with its answer.
INSERT INTO assay_data (query_smiles, observable, meas_value) VALUES
  ('CC(C)(Sc1nc(CCOc2ccc(-c3ccc(F)cc3)cn2)cs1)C(=O)O', 'inhibition in vivo at 0.3 mg/kg', '35%'),
  ('CC(C)(Sc1nc(CCOc2ccc(-c3ccc(F)cc3)cc2)cs1)C(=O)O', 'inhibition in vivo at 0.3 mg/kg', '43%'),
  ('CCc1cnc(N(CCc2csc(SC(C)(C)C(=O)O)n2)Cc2cnn(-c3ccccc3)c2)nc1', 'inhibition in vivo at 0.3 mg/kg', '31%'),
  ('CC(C)(Sc1nc(CCNc2ccc(-c3ccc(C(F)(F)F)cc3F)nn2)cs1)C(=O)O', 'inhibition in vivo at 0.3 mg/kg', '31%'),
  ('CCCCCCCN(CCc1csc(SC(C)(C)C(=O)O)n1)c1ncc(CC)cn1', 'inhibition in vivo at 0.3 mg/kg', '31%'),
  ('CCc1cnc(N(C/C=C/c2ccccc2)CCc2csc(SC(C)(C)C(=O)O)n2)nc1', 'inhibition in vivo at 0.3 mg/kg', '31%'),
  ('CC(C)(Sc1nc(CCNc2ncc(-c3ccc(OC(F)(F)F)cc3)cn2)cs1)C(=O)O', 'inhibition in vivo at 0.3 mg/kg', '31%'),
  ('CCCCCCCN(CCc1csc(SC(C)(C)C(=O)O)n1)c1ncc(N2CCOCC2)cn1', 'inhibition in vivo at 0.3 mg/kg', '38%');

// below: inhibition in vivo at 0.3 mg/kg requested for another compound
Bench note, high cholesterol diet-treated rat: entry CC(C)(Sc1nc(CCNc2cnc(-c3ccc(Cl)cc3)cn2)cs1)C(=O)O , its inhibition in vivo at 0.3 mg/kg = 38%
